Assay: Cell Viability - LYMP2-009 (AID 968);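 further: cells exposed to compound for 24 h at 37 °C; nearly all actives have a fitted effect of over 55% in size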
Conditions: LYMP2-009 lymphoblastoid cell viability; series mostly up to 92.2 µM
Inconclusive results are not listed. Active and inactive are the calls of the source. The call rests on the fitted dose curve; in most records, active means well fitted cell-killing curve with a large enough effect; inconclusive means small, poorly fitted or top-dose-only effect; inactive means flat fitted curve, though single readings scatter.
Answer with one of the outcomes given here: Yes = active, No = inactive

Look over these answered cases.
# chemical.string, category.label
measured = [
    ("O=C(Cl)OCc1ccccc1", "No"),
    ("O=[N+]([O-])c1cccc(CCl)c1", "Yes"),
]

IN: Record request — test call for C=CCCC#N
OUT: No

IN: Record request — test call for Cc1cc(Cl)ccc1O
OUT: No

* * *

Experiment: Stat Signaling Pathway (AID 446);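 further: ME-180 cervical cancer cells given 40 pM IL-6 alongside compound; SIE-controlled beta-lactamase reporter measured as 460/530 nm FRET emission ratio; on the % scale 0 is the no-effect control and ±100 the full control effect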
Conditions: ME-180 SIE beta-lactamase reporter, IL-6 stimulated, 5 h; at 7.69 µM (top of the series) unless noted
Inconclusive results are not listed. Activity calls are given as the source filed them. Calls follow the shape of the dose curve; as a rule, active = well fitted curve in either direction with a large enough effect (not every such curve was filed as active); inconclusive = small, poorly fitted or top-dose-only effect, or another doubt; inactive = flat fitted curve, though single readings scatter.
Measured activity, negative = inhibition, listed per entry.

# chemical.string, activity, negative = inhibition
measured = [
    ("CC(C)C(=O)CP(=O)(O)O", "5.14% (inactive)"),
    ("CC(C)[C@]1(O)[C@@H](OC(=O)c2ccc[nH]2)[C@]2(O)[C@@]3(C)C[C@@]4(O)O[C@@]5([C@H](O)[C@@H](C)CC[C@]35O)[C@]2(O)[C@]41C", "-4.77% (inactive)"),
    ("COc1ccc(C[C@@H](N)c2ccc(OC)cc2)cc1", "-0.344% (inactive)"),
    ("O=C(O)C(O)(c1ccc(-c2ccccc2)cc1)c1ccc(-c2ccccc2)cc1", "-5.5% (inactive)"),
    ("O=C(O)CNC(=O)c1ccc([As](=O)(O)O)cc1", "12.9% (inactive)"),
]

IN: Tell me measured activity, negative = inhibition for CCC1(CCSC(=N)N)C(=O)NC(=O)NC1=O please.
OUT: -4.63% (inactive)

IN: Tell me measured activity, negative = inhibition for CN[C@H]1[C@H](C)O[C@@H](O[C@@H]2C/C=C(/C)C/C(C)=C\C=C/CC[C@@H](C)CNC(=O)/C=C\C=C/[C@H]2C)C[C@@H]1O please.
OUT: -1.24% (inactive)

IN: Tell me measured activity, negative = inhibition for CN1C[C@H](C(=O)N[C@@]2(C)O[C@@]3(O)[C@H]4CCCN4C(=O)[C@@H](Cc4ccccc4)N3C2=O)C=C2c3cccc4[nH]cc(c34)C[C@@H]21 please.
OUT: 0.776% (inactive)

IN: Tell me measured activity, negative = inhibition for c1ccc2c([C@@H]3CCN(CCN4CCOCC4)C3)c[nH]c2c1 please.
OUT: 0.702% (inactive)

IN: Tell me measured activity, negative = inhibition for NC(=O)CN1C[C@@H](O)CC1=O please.
OUT: -8.38% [at 38 µM] (inactive)

IN: Tell me measured activity, negative = inhibition for O=C(O)[C@@H](O)[C@@H](O)[C@@H]1[O][Sb][O][C@@H]1CO please.
OUT: 1.94% (inactive)

IN: Tell me measured activity, negative = inhibition for NNc1nncn1N please.
OUT: 18.4% (inactive)

IN: Tell me measured activity, negative = inhibition for NC(=O)c1ccc(C(=O)Nc2ccc([As](=O)(O)O)cc2)cc1 please.
OUT: 5.04% (inactive)

IN: Tell me measured activity, negative = inhibition for C[C@@H](Cc1ccc(Cl)cc1Cl)NO please.
OUT: -0.402% (inactive)

* * *

Biological target: Mitogen-activated protein kinase 10 (Mus musculus)
Test: JNK3 AlphaScreen Assay (AID 530);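 further: kinase came from lysate of stimulated human HepG2 cells; signal reports phosphorylation of biotinylated GST-cJun 1-79 at Ser73 with 10 µM ATP; on the % scale 0 is the no-effect control and ±100 the full control effect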
Conditions: JNK3 lysate, c-Jun phosphorylation; series mostly up to 57.1 µM
Results filed as inconclusive are left out. Calls of active or inactive are those of the source. The call rests on the fitted dose curve; in most records, active means well fitted curve in either direction with a large enough effect (not every such curve was filed as active); inconclusive means small, poorly fitted or top-dose-only effect, or another doubt; inactive means flat fitted curve, though single readings scatter.
assay.endpoint: activity change, negative = inhibition

# molecule, assay.endpoint, test.value
data = [
    ("O[C@H](CN1CC1)[C@@H](O)CN1CC1", "activity change, negative = inhibition", "2.9% [at 11.4 µM] (inactive)"),
    ("CCCBr", "activity change, negative = inhibition", "inactive"),
    ("Cn1c(=O)c2[nH]cnc2n(C)c1=O.[CH2-][C@H](Cc1cccc2cc(C(=O)O)c(=O)oc12)OC.[Hg].[OH-]", "activity change, negative = inhibition", "-0.539% [at 11.4 µM] (inactive)"),
    ("N[C@@H](Cc1ccccc1)P(=O)(O)O", "activity change, negative = inhibition", "3.3% [at 11.4 µM] (inactive)"),
    ("Oc1ccc(Cl)c(Cl)c1Cl", "activity change, negative = inhibition", "inactive"),
]

IN: Look up and report activity change, negative = inhibition, with Mitogen-activated protein kinase 10 (Mus musculus) as system, for CCCCNC(=O)n1c(NC(=O)OC)nc2ccccc21
OUT: inactive

IN: Look up and report activity change, negative = inhibition, with Mitogen-activated protein kinase 10 (Mus musculus) as system, for O=C(O)C(Cl)Br (centres undefined)
OUT: inactive

IN: Look up and report activity change, negative = inhibition, with Mitogen-activated protein kinase 10 (Mus musculus) as system, for O=C(O)/C=C\c1ccc[c]([Sb](=[O])([OH])[OH])c1
OUT: 3.13% [at 11.4 µM] (inactive)

* * *

Biological target: Cytochrome P450 1A2 (Homo sapiens) (UniProt P05177)
Sequence (P05177 whole entry, looked up): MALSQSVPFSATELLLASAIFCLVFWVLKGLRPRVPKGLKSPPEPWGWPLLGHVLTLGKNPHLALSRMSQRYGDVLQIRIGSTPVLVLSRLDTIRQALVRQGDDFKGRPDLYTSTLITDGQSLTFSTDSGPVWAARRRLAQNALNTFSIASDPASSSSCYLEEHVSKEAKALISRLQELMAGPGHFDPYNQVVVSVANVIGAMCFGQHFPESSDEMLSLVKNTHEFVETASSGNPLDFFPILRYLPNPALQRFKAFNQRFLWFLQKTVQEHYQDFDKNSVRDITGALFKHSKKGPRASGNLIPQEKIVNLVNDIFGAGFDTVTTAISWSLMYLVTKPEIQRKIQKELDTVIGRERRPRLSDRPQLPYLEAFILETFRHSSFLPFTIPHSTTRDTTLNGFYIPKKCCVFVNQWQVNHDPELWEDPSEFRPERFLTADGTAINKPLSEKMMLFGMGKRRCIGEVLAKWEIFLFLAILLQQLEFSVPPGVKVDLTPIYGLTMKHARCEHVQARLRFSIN
Assay: p450-cyp1a2 (AID 410)
Settings: recombinant CYP1A2, luciferin-ME demethylation, luminescence; series mostly up to 11.4 µM
Records with an inconclusive call do not appear. Activity calls are given as the source filed them. Calls come from the whole dose curve.
Answer with one of the outcomes given here: active, inactive

Look over these answered cases.
# compound, subject.of.test, category.label
measured = [
    ("C=C[C@@H]1CN2CC[C@H]1C[C@H]2[C@H](O)c1ccnc2ccccc12", "Cytochrome P450 1A2 (Homo sapiens) (UniProt P05177)", "inactive"),
    ("CS(=N)(=O)CC[C@H](N)P(=O)(O)O (some centres undefined)", "Cytochrome P450 1A2 (Homo sapiens) (UniProt P05177)", "inactive"),
    ("COC(=O)c1c(C)ccc2c(O)c3c(cc12)C(=O)c1c2c(cc(O)c1C3=O)[C@@]1(C)O[C@@](C)(O2)[C@@H](O)[C@H](N(C)C)[C@H]1O", "Cytochrome P450 1A2 (Homo sapiens) (UniProt P05177)", "active"),
]

Now for a further compound.
IN: Record request — test call for O=[As](O)(O)c1ccc(N=Nc2ccc(O)cc2)cc1
OUT: inactive

* * *

Experiment: Stat Signaling Pathway (AID 446);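 further: ME-180 cervical cancer cells given 40 pM IL-6 alongside compound; SIE-controlled beta-lactamase reporter measured as 460/530 nm FRET emission ratio; on the % scale 0 is the no-effect control and ±100 the full control effect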
Conditions: ME-180 (cervical carcinoma) SIE beta-lactamase reporter, IL-6 stimulated, 5 h; at 7.69 µM (top of the series) unless noted
Method: NCGC Assay Overview: The IL-6/STAT signaling pathway was assayed in ME-180 cervical carcinoma cells by a beta-lactamase reporter gene controlled by a STAT Inducible Element (SIE). This reporter is induced by IL-6 at 40 pM AC50 and inhibited by the pan JAK inhibitor, 2-(1,1-Dimethylethyl)-9-fluoro-3,6-dihydro-7H-benz[h]-imidaz[4,5-f]isoquinolin-7-one, at approximately 10 nM AC50. Plated cells were incubated overnight and on the following day, stimulated with 40 pM IL-6 for 5 hrs. […]
Records with an inconclusive call do not appear. Calls of active or inactive are those of the source. The call rests on the fitted dose curve; in most records, active means well fitted curve in either direction with a large enough effect (not every such curve was filed as active); inconclusive means small, poorly fitted or top-dose-only effect, or another doubt; inactive means flat fitted curve, though single readings scatter.
Answer with one of the outcomes given here: yes = active, no = inactive

Look over these answered cases.
# compound, category.label
records = [
    ("O=C(O)C[C@H]1OCC=C2CN3CC[C@]45c6ccccc6N[C@@H]4[C@H]1[C@H]2C[C@H]35", "no"),
    ("CC[C@@H]1[C@@H]2Cc3ccc(O)cc3[C@@]1(CC)CCN2C", "no"),
    ("c1cc(C2N3CCCN2CC3)ccn1 (stereo not given)", "no"),
    ("CCn1cnc2c(Nc3cccc(Cl)c3)nc(N[C@@H]3CCCC[C@H]3N)nc21", "yes"),
]

IN: Record request — test call for COc1cc2c(cc1OC)[C@@]13CCN4CC5=CCO[C@H](CC(=O)O)[C@@H]([C@H]1N2)[C@H]5C[C@H]43
OUT: no

* * *

Assay: qHTS assay for environmental chemicals that activate the Aryl hydrocarbon Receptor (AhR) signaling pathway (AID 651777); further: % of control where 0% means no effect; nearly all actives have a fitted effect of over 15% in size
Settings: 1A2-DRE human hepatoma cells, luciferase, 24 h; stronger effect = higher value
Inconclusive results are not listed.
Measured activation, listed per entry.
Use % as the unit, but write only the number.

Recorded activation, per entry:
# compound, value.unit, activation
records = [
    ("N#CC(Br)Br", "%", 1.38),
    ("Nc1ncc([N+](=O)[O-])s1", "%", 1.78),
    ("Nc1cc(Cl)cc(Cl)c1", "%", -0.276),
    ("[C-]1=CC=CC1.[C-]1=CC=CC1.[Cl-].[Cl-].[Ti+4]", "%", 0.145),
]

IN: Tell me measured activation for Cl/C=C\Cl please.
OUT: 0.819

IN: Tell me measured activation for O=[N+]([O-])c1cc(Cl)c(Cl)cc1Cl please.
OUT: -0.111

IN: Tell me measured activation for Cc1ccc2c(C)cccc2c1 please.
OUT: -0.533

IN: Tell me measured activation for O=[N+]([O-])c1ccc(O)c([N+](=O)[O-])c1 please.
OUT: 0.436
